Entries and their pIC50
test system: P. falciparum NF54 strain; assay: P. falciparum NF54 24 h assay (species shift assay); assay type: cell-based; conditions: Plasmodium falciparum, NF54, read-out: IC50 Pf NF54; 24 h assay
Scale explanation: pIC50 corresponds to minus log10 of a concentration expressed in moles per litre.

CC1=C(Cc2ccc(C(F)(F)F)cc2)C(=O)c2ccc(F)cc2C1=O | 6.80

Give reported pIC50 for CC1=C(Cc2ccc(F)c(C(F)(F)F)c2)C(=O)c2ccccc2C1=O (P. falciparum NF54 strain)
6.84

Give reported pIC50 for CC1=C(Cc2ccc(C(F)(F)F)cc2)C(=O)c2cc(F)ccc2C1=O (P. falciparum NF54 strain)
6.98

Give reported pIC50 for CC1=C(Cc2c(F)c(F)c(F)c(F)c2F)C(=O)c2ccccc2C1=O (P. falciparum NF54 strain)
6.74
